The values you see were collected from patent US6737383B1.

Test system: morningglory
Experiment: Test B pre/postemergence morningglory
Type: in vivo, Ipomoea hederacea
Conditions: Postemergence, Rate 250 g/ha; scale of 0 to 10, 0 is no effect, 10 is complete control
QUANTITY KIND: Morningglory plant response rating

### Prompt Please look up its Morningglory plant response rating: CC(C)N(C(=O)n1oc(=O)n(CC2=NOCCC2)c1=O)c1ccc(F)cc1
### Response 1

### Prompt Please look up its Morningglory plant response rating: CCOP(=O)(OCC)C(C)n1c(=O)on(C(=O)N(c2ccc(Cl)cc2)C(C)C)c1=O (stereo not drawn)
### Response 0

### Prompt Please look up its Morningglory plant response rating: CC(C)N(C(=O)n1oc(=O)n(CC(=O)C2CCC2)c1=O)c1ccccc1
### Response 7
